- Test system: sGFP::ATZ
- ASSAY_TEXT: LOPAC library high-content primary screen for sGFP::ATZ accumulation in transgenic animals
- Assay type: in vivo, C. elegans
- ASSAY_SETUP: among compounds that increased ATZ accumulation, based on relative rank-scores
Counter-ions that a name gives are not always drawn.
MEASURED_METRIC: Overall rank-order
The answer should be a number; do not append a unit.

query: Retrieve Overall rank-order on sGFP::ATZ; query CC(C)(C)c1cc(/C=C(\C#N)C(N)=S)cc(C(C)(C)C)c1O
result: 10

query: For sGFP::ATZ, give Overall rank-order of the listed compound: CC(C)C[C@H]1C(=O)N2CCC[C@H]2[C@]2(O)O[C@](NC(=O)[C@@H]3C=C4c5cccc6[nH]c(Br)c(c56)C[C@H]4N(C)C3)(C(C)C)C(=O)N12.CS(=O)(=O)O [(+)-bromocriptine methanesulfonate]
result: 8

query: # assay system sGFP::ATZ: give Overall rank-order of CCCCOC(=O)NS(=O)(=O)c1sc(CC(C)C)cc1-c1ccc(Cn2c(CC)nc3c(C)cc(C)nc32)cc1
result: 9

query: Provide the reported Overall rank-order (system: sGFP::ATZ) for Cc1cnc(C(=O)NCCc2ccc(S(=O)(=O)NC(=O)NC3CCCCC3)cc2)cn1 [glipizide]
result: 12

query: For sGFP::ATZ, give Overall rank-order of the listed compound: C/C=C(/C)C(=O)O[C@H]1C(C)=C2[C@H]([C@@H]1OC(=O)CCCCCCC)[C@@](C)(OC(C)=O)C[C@H](OC(=O)CCC)[C@@]1(O)[C@H]2OC(=O)[C@@]1(C)O
result: 2

query: Report Overall rank-order under test system sGFP::ATZ for CC(=O)c1c(O)c(C)c(O)c(Cc2c(O)c3c(c(C(=O)/C=C/c4ccccc4)c2O)OC(C)(C)C=C3)c1O .
result: 15

query: Using sGFP::ATZ as the test system, report measured Overall rank-order of CCCC(=O)NCCc1c2n(c3ccc(OC)cc13)Cc1ccccc1-2 .
result: 11

query: // output Overall rank-order; input CS(=O)(=O)O.Cc1c(C(=O)c2cccc3ccccc23)c2cccc3c2n1[C@H](CN1CCOCC1)CO3 [(R)-(+)-WIN 55,212-2 mesylate] ; system sGFP::ATZ
result: 14

query: Report Overall rank-order from sGFP::ATZ testing of Cc1nc(-c2ccc(-c3ccc(C(=O)N4CCc5cc6c(cc54)C4(CCN(C)CC4)CO6)cc3)c(C)c2)no1 [SB 224289 hydrochloride]
result: 3

query: Quote sGFP::ATZ Overall rank-order for entry C#C[C@]1(O)CC[C@H]2[C@@H]3CCC4=Cc5nc6nc7ccccc7n6cc5C[C@]4(C)[C@H]3CC[C@@]21C .
result: 12

query: Answer briefly: Overall rank-order recorded on sGFP::ATZ for CN(C)c1cc2c(Nc3ccc4c(cnn4Cc4ccccc4)c3)ncnc2cn1
result: 1

query: Give measured Overall rank-order for COc1cc(OC)c(C=C2C(O)=Nc3ccccc32)c(OC)c1 (sGFP::ATZ).
result: 5

----------
- Test system: sGFP::ATZ
- ASSAY_TEXT: LOPAC library high-content primary screen for sGFP::ATZ accumulation in transgenic animals
- Format: in vivo, C. elegans
- ASSAY_SETUP: 24 h, 50 µM
Structures can show the parent of a compound that is named as a salt.
Please respond with reported Rank-score for every item in the list.
Write no unit; give the number alone.

query: Name the recorded Rank-score of the compound listed here: CC(=O)O[C@H]1C(=O)[C@@]2(C)[C@H]([C@H](OC(=O)c3ccccc3)[C@]3(O)C[C@H](OC(=O)[C@H](O)[C@@H](NC(=O)c4ccccc4)c4ccccc4)C(C)=C1C3(C)C)[C@]1(OC(C)=O)CO[C@@H]1C[C@@H]2O
result: 73.5

query: Report Rank-score for OCCN1CCN(CCCN2c3ccccc3Sc3ccc(C(F)(F)F)cc32)CC1 [fluphenazine dihydrochloride]
result: 81.0

query: Return reported Rank-score. Input compound: Clc1ccccc1C(c1ccccc1)(c1ccccc1)n1ccnc1
result: 1255.0

query: Please give measured Rank-score of the following entry: CN(C)CCC=C1c2ccccc2COc2ccccc21 [doxepin hydrochloride]
result: 61.0

Reference source: patent US9820990B2
